The reported numbers originate from PubChem BioAssay (EPA / NIEHS).

TARGET ENTITY: human Raf-1 Proto-Oncogene, serine/threonine Kinase (RAF1), RAF1 (gene 5894) (UniProt P04049)
Sequence (P04049 whole entry, looked up): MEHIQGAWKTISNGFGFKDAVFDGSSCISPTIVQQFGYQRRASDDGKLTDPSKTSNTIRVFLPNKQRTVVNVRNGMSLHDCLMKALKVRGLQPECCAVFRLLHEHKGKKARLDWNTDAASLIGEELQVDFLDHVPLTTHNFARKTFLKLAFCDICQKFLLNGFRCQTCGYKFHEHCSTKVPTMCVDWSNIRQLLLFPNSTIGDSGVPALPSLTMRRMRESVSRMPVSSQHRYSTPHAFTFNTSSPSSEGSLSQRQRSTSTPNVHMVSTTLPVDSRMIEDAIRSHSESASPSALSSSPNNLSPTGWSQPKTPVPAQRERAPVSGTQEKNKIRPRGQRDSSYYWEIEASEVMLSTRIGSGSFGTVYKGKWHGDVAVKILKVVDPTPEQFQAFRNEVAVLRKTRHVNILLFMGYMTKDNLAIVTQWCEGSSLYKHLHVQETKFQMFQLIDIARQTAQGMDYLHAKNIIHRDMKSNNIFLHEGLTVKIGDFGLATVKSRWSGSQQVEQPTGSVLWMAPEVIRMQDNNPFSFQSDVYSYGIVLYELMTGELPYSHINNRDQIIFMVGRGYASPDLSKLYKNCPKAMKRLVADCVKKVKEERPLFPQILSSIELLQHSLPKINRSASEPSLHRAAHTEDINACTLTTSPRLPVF
TEST DETAILS: NVS_ENZ_hRAF1: NovaScreen (NVS) Enzymatic Assay for human Raf-1 Proto-Oncogene, serine/threonine Kinase (RAF1) (AID 2283216)
Results filed as inconclusive are left out. Active and inactive are the calls of the source. How the source made its calls: active means hit-call score of the fitted dose curve at least 0.9, where 1 is the maximum; inconclusive means response in the unintended direction; inactive means score below 0.9.

SMILES ENTRY: C[C@@H]1C[C@H]2[C@@H]3CCC4=CC(=O)C=C[C@]4(C)[C@@]3(F)[C@@H](O)C[C@]2(C)[C@@]1(O)C(=O)COP(=O)(O)O
AC50: inactive
--
SMILES ENTRY: COC(=O)CCCCC(=O)OC
AC50: inactive
--
SMILES ENTRY: O=C(O)c1cccc(N(Cc2cccnc2)c2ccc(OC(F)F)c(OC(F)F)c2)c1
AC50: inactive
--
SMILES ENTRY: CCCCCCCCCCCCc1ccccc1S(=O)(=O)O
AC50: 26 µM (active)
--
SMILES ENTRY: CC[C@H](c1ccc(O)cc1)[C@@H](CC)c1ccc(O)cc1
AC50: 38.5 µM (active)
--
SMILES ENTRY: CCc1c(C(=O)NN2CCCCC2)nn(-c2ccc(Cl)cc2Cl)c1-c1ccc(Br)cc1
AC50: inactive
--
SMILES ENTRY: Cc1cc(CCN2CCN(c3nsc4ccccc34)CC2)cc2c1NC(=O)CC2(C)C
AC50: inactive
--
SMILES ENTRY: O=C(O)Cc1cc(I)c(Oc2cc(I)c(O)c(I)c2)c(I)c1
AC50: inactive
--
SMILES ENTRY: COc1ccc2sc(C(=O)Nc3nnn[nH]3)c(OC(C)C)c2c1
AC50: 25 µM (active)
--
SMILES ENTRY: c1ccc2ncccc2c1
AC50: inactive
--
SMILES ENTRY: CCO[Si](CCCNC(N)=O)(OCC)OCC
AC50: inactive
--
SMILES ENTRY: O=C(c1ccc(O)cc1O)c1ccc(O)cc1O
AC50: inactive
--
SMILES ENTRY: CC(C)CCCCCCc1ccc(O)cc1
AC50: inactive
--
SMILES ENTRY: O=C(O)Cc1cc(I)c(Oc2ccc(O)c(I)c2)c(I)c1
AC50: inactive
--
SMILES ENTRY: CCOC(=O)COc1cc(-n2ncc(C(F)(F)F)c(C)c2=O)c(F)cc1Cl
AC50: inactive
--
SMILES ENTRY: S=C(S)NCCNC(=S)S.[Mn+2].[S-]C([S-])=NCCN=C([S-])[S-].[Zn+2]
AC50: inactive
--
SMILES ENTRY: NCCO
AC50: inactive
--
SMILES ENTRY: Cc1ccc2ncccc2c1
AC50: inactive
--
SMILES ENTRY: O=C(O)CCCCC(=O)O
AC50: inactive
--
SMILES ENTRY: CN(C)c1ccc(N=NS(=O)(=O)O)cc1
AC50: inactive
--
SMILES ENTRY: COc1ccc(/C=C/S(=O)(=O)NC(=O)c2ccc(C)cc2Cl)cc1
AC50: inactive
--
SMILES ENTRY: Cc1cc2c(cc1C(F)(F)F)N(C(=O)Nc1ccc(Oc3cccnc3C)nc1)CC2
AC50: 6.86 µM (active)
--
SMILES ENTRY: CC(C)(C)[C@@H](O)[C@@H](Cc1ccc(Cl)cc1)n1cncn1
AC50: inactive

---

TEST DETAILS: TOX21_p53_BLA_p4_viability: Viability Assessment in the Tox21 HCT-116 p53 Agonism Beta-lactamase Assay, Phase 4 (AID 2283597);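 further: hits lower the luminescence signal meaning cytotoxicity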
Results filed as inconclusive are left out. The source made the active and inactive calls. Rule for the calls: active = hit-call score of the fitted dose curve at least 0.9, where 1 is the maximum; inconclusive = response in the unintended direction; inactive = score below 0.9.

COMPOUND: N#CCCSCCC#N
outcome: inactive
//
COMPOUND: Clc1ccc([C@@H]2C[C@H]3CC[C@@H]2N3)cn1
outcome: inactive
//
COMPOUND: CC(C)Br
outcome: inactive
//
COMPOUND: CNC(=O)Oc1cc(C)cc(C(C)C)c1
outcome: inactive
//
COMPOUND: [N-]=[N+]=CC(=O)OC[C@H](N)C(=O)O
outcome: inactive
//
COMPOUND: O=C(O)CC[N+](=O)[O-]
outcome: inactive
//
COMPOUND: Nc1ccncc1
outcome: inactive
//
COMPOUND: CCOP(=O)(OCC)SCCSCC (tested in a mixture with another compound)
outcome: inactive
//
COMPOUND: COc1ccc2c3c1O[C@H]1[C@@H](O)C=C[C@H]4[C@@H](C2)N(C)CC[C@@]341
outcome: inactive
//
COMPOUND: CCCOC(=O)Cc1ccc(OCC(=O)N(CC)CC)c(OC)c1
outcome: inactive
//
COMPOUND: O=C(Cl)C(Cl)(Cl)Cl
outcome: inactive
//
COMPOUND: O=C(O)C(Cl)Br (stereo not given)
outcome: inactive
//
COMPOUND: CCCN(CC1CC1)c1c([N+](=O)[O-])cc(C(F)(F)F)cc1[N+](=O)[O-]
outcome: inactive
//
COMPOUND: CN
outcome: inactive
//
COMPOUND: CC(=O)C(Cl)Cl
outcome: inactive

---

TARGET ENTITY: human Protein Tyrosine Phosphatase Receptor Type C (PTPRC), PTPRC (gene 5788)
TEST DETAILS: NVS_ENZ_hPTPRC: NovaScreen (NVS) Enzymatic Assay for human Protein Tyrosine Phosphatase Receptor Type C (PTPRC) (AID 2283212)
Records with an inconclusive call do not appear. Active and inactive are the calls of the source. Rule for the calls: active = hit-call score of the fitted dose curve at least 0.9, where 1 is the maximum; inconclusive = response in the unintended direction; inactive = score below 0.9.
Labels: active, inactive

SMILES ENTRY: O=C(O)Cn1c(=O)n(Cc2ccc(Br)cc2F)c(=O)c2ccc(Cl)cc21
CATEGORY LABEL: inactive

SMILES ENTRY: O=C(c1ccccc1)C1CCCCC1
CATEGORY LABEL: inactive

SMILES ENTRY: CN(C[C@@H](CC[N+]12CCC(C3CCCCC3)(CC1)CC2)c1ccc(Cl)c(Cl)c1)C(=O)c1cc(C(F)(F)F)cc(C(F)(F)F)c1
CATEGORY LABEL: inactive

SMILES ENTRY: CCCCCCCCCCCCc1ccccc1S(=O)(=O)O
CATEGORY LABEL: active

SMILES ENTRY: CC(C)(c1ccc(O)cc1)c1ccc(O)cc1
CATEGORY LABEL: inactive

SMILES ENTRY: CCCCCCCCCCCCCCOS(=O)(=O)O
CATEGORY LABEL: active

---

TARGET ENTITY: rat CYP2C12, Cyp2c12 (gene 25011)
TEST DETAILS: NVS_ADME_rCYP2C12: NovaScreen (NVS) CYP450-related Enzyme Activity (ADME) Assay for rat CYP2C12 (AID 2283119)
Inconclusive results are not listed. Activity calls are given as the source filed them. Rule for the calls: active = hit-call score of the fitted dose curve at least 0.9, where 1 is the maximum; inconclusive = response in the unintended direction; inactive = score below 0.9.
Labels: active, inactive

COMPOUND: C=CCOC(Cn1ccnc1)c1ccc(Cl)cc1Cl (centres undefined)
CATEGORY LABEL: active
//
COMPOUND: CC(C)(C)[C@@H](O)[C@@H](Cc1ccc(Cl)cc1)n1cncn1
CATEGORY LABEL: active
//
COMPOUND: N#CSCSc1nc2ccccc2s1
CATEGORY LABEL: active
//
COMPOUND: C[C@]12CC[C@@H]3c4ccc(O)cc4CC[C@H]3[C@@H]1CC[C@@H]2O
CATEGORY LABEL: inactive

---

TEST DETAILS: CCTE_Mundy_HCI_iCellGluta_NOG_NeuriteLength: CCTE's Neurite Outgrowth Assay in iCellGluta cells for Neurite Length, Mundy Lab (AID 2284318)
Inconclusive results are not listed. Calls of active or inactive are those of the source. How the source made its calls: active means hit-call score of the fitted dose curve at least 0.9, where 1 is the maximum; inconclusive means response in the unintended direction; inactive means score below 0.9.
Labels: 1 = active, -1 = inactive

COMPOUND: Cn1nc(C(F)(F)F)c(CS(=O)(=O)C2=NOC(C)(C)C2)c1OC(F)F
CATEGORY LABEL: 1
//
COMPOUND: CCOP(=O)(Oc1cnc(C(C)(C)C)nc1)OC(C)C (stereo not given)
CATEGORY LABEL: 1
//
COMPOUND: CCOP(=O)(OCC)OC(Cl)C(Cl)(Cl)Cl (stereo not given)
CATEGORY LABEL: -1
//
COMPOUND: CC1(C)C(C=C(Cl)Cl)C1C(=O)O[C@H](C#N)c1cccc(Oc2ccccc2)c1 (stereo not given in full)
CATEGORY LABEL: -1
//
COMPOUND: CCOP(=S)(OCC)SCS(=O)C(C)(C)C (stereo not given)
CATEGORY LABEL: -1
//
COMPOUND: COP(=O)(OC)SCN1C(=O)c2ccccc2C1=O
CATEGORY LABEL: 1
//
COMPOUND: CC1(C)[C@@H](C=C(Cl)Cl)[C@@H]1C(=O)O[C@@H](C#N)c1ccc(F)c(Oc2ccccc2)c1
CATEGORY LABEL: -1
//
COMPOUND: CC(=O)[O-].[Tl+]
CATEGORY LABEL: 1
//
COMPOUND: CCOP(=O)(OCC)SCSCC
CATEGORY LABEL: 1
//
COMPOUND: C#CCN(C)[C@H](C)Cc1ccccc1
CATEGORY LABEL: -1
